Ref: PubChem BioAssay AID1851

Here, each record is paired with measured AC50 data.
target: Cytochrome P450 1A2 (Homo sapiens) (UniProt P05177); test: Cytochrome panel assay with activity outcomes; details: recombinant CYP, pro-luciferin dealkylation, luminescence, p450-cyp1a2; series mostly up to 57.1 µM
Sequence (P05177 whole entry, looked up): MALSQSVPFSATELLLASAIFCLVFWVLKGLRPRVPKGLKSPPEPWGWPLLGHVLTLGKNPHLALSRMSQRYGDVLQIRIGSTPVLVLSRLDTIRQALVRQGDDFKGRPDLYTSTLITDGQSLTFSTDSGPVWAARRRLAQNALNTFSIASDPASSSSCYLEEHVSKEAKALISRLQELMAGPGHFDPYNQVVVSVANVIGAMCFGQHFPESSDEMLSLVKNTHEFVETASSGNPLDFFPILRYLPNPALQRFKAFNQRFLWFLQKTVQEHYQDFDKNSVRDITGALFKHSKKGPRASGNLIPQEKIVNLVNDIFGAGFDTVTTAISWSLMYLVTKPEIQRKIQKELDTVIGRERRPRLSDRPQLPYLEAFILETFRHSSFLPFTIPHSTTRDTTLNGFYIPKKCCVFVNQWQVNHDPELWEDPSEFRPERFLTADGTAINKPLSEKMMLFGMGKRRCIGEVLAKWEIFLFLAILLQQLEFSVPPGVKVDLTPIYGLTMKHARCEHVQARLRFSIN
Screen size: about 16,000 compounds; about 5,700 (36%) were called active. Another 24% or so got no clear call; they are omitted. Some of the results follow.

A selection of reference data follows.
Entry `Cc1nnc(NC(=O)c2oc3c(ccc4ccccc43)c2C)s1` has what AC50?
200 nM (active)

Find the recorded AC50 belonging to `O=c1c(-c2cc(F)cc(F)c2)nc2cncnc2n1-c1ccccc1` and report it.
12600 nM (active)

Would you mind telling me what AC50 value was observed for `O=C(Cc1ccccc1)N/N=C/c1ccccc1OCc1ccc(Cl)cc1` ?
2240 nM (active)

Now for another entry.
I'd like to know its AC50. The molecule in question is `Cc1cccc(CSc2cccc3cccnc23)c1`
2000 nM (active)

----------
biological target: Cytochrome P450 1A2 (Homo sapiens); experiment: Cytochrome panel assay with activity outcomes; settings: recombinant CYP, pro-luciferin dealkylation, luminescence, p450-cyp1a2; series mostly up to 57.1 µM
The campaign covered roughly 16,000 compounds. About 5,700 (36%) were called active. Inconclusive results (about 24%) are left out. The call rests on the fitted dose curve; in most records, active means well fitted curve in the direction sought with a large enough effect; inconclusive means small, poorly fitted or top-dose-only effect, or effect the other way; inactive means no such curve, though single readings can be large or run the other way. Some of the results follow.
Pick one and only one: active, inactive

Could you check what this test reported for `CC(=O)N/N=C/c1cc([N+](=O)[O-])ccc1OCCOc1ccccc1` ?
inactive

More entries:
Returns: the outcome recorded for `C[N+](C)(C)CCCCCNCC12CC3CC(CC(C3)C1)C2` in this assay.
inactive

Look up the recorded call for `COc1ncc2nc(-c3ccc(Cl)cc3)c(=O)n(-c3ccccc3)c2n1` in this test.
active

Hi, sorry to bother you, what did the test record for `Cc1cnc(NC(=O)CSc2ccc(Cl)cc2)s1` ?
active

Test call for this compound, please: CCCCN1C(=O)C(NC(=O)CC(C)C)(C(F)(F)F)C2=C1CC(C)(C)CC2=O (stereo not drawn)
inactive

Test call, this compound: `COc1ncc2nc(-c3ccccc3)c(=O)n(-c3ccccc3)c2n1`
active

# fetch the recorded call for `CC[C@@H]1OC(=O)[C@H](C)[C@H](O[C@@H]2C[C@](C)(OC)[C@H](O)[C@H](C)O2)[C@H](C)[C@H](O[C@@H]2O[C@@H](C)C[C@@H](N(C)C)[C@@H]2O)[C@](C)(O)C[C@H](C)C(=NOCOCCOC)[C@H](C)[C@H](O)[C@]1(C)O` here
inactive

Status in this test for `COC(=O)c1sccc1NC(=O)CSc1cc(Cl)ccc1Cl` ?
active

Could you kindly confirm the outcome this assay logged for `Cc1cccc(CNc2ccnc(-c3ccccc3C(F)(F)F)n2)c1` ?
active

Lab log entry: `C=CCOc1ccc2cccc(/C=N/NC(=O)c3cc4cc([N+](=O)[O-])ccc4s3)c2c1` — outcome as called in the assay?
active

Given `CCOC(=O)CSc1nnc(CSc2nc3sc4c(c3c(=O)[nH]2)CCCC4)n1-c1ccccc1` , state the outcome it received in this test.
active

Recorded call for `COCc1nnc(NC(=O)CC(c2ccccc2)c2ccccc2)s1` ?
inactive

How was `Cc1ccc(C(=O)O)cc1N1C(=O)c2cccc3cc(Br)cc(c23)C1=O` classified in this test?
inactive

----------
target: Cytochrome P450 1A2 (Homo sapiens); assay: Cytochrome panel assay with activity outcomes; settings: recombinant CYP, pro-luciferin dealkylation, luminescence, p450-cyp1a2; series mostly up to 57.1 µM
The campaign covered roughly 16,000 compounds. About 5,700 (36%) were called active. Roughly 24% stayed inconclusive and do not appear here. Calls follow the shape of the dose curve; as a rule, active = well fitted curve in the direction sought with a large enough effect; inconclusive = small, poorly fitted or top-dose-only effect, or effect the other way; inactive = no such curve, though single readings can be large or run the other way. The list shows a part of the results.
Valid outcomes are listed here; reply with one: Yes for active, No for inactive

Assay result, entry `CCCCn1c(NCc2ccccc2NS(=O)(=O)c2ccc(C)cc2)nc2ccccc21` — outcome?
No

Outcome? COc1ccc(C2/C(=C(/O)c3ccccc3)C(=O)C(=O)N2c2ccccn2)c(OC)c1 (stereo not given)
No

How was `CCOc1ccc(N2C(=O)CN=C2Nc2ccccc2Cl)cc1` classified in this test?
No

Which result was noted for this compound in the test: `N#Cc1ccccc1-c1ccc2ncnc(NCCN3CCOCC3)c2c1`
Yes

Can you look up the reported call for `Clc1ccccc1-c1ccc2ncnc(NCCN3CCOCC3)c2c1` for me?
Yes

// return assay outcome for `C[C@@H]1O[C@H](O[C@@H]2[C@@H](Oc3cc(O)c4c(c3)O[C@H](c3ccc(O)cc3)CC4=O)O[C@@H](CO)[C@@H](O)[C@H]2O)[C@@H](O)[C@H](O)[C@@H]1O`
No

Test call for this compound, please: `COc1ccc2oc(-c3ccc(C)c(NC(=O)CSc4ccc(Cl)cc4)c3)nc2c1`
Yes

Test call, this compound: `O=C(NC(=S)Nc1ccc(Br)cn1)c1cncc(Br)c1`
Yes
